// cross-source set; read-out = pKd; system = Thromboxane A2 receptor (Homo sapiens, UniProt P21731)
pKd: −log10 of the molar value.
MEASUREMENT KIND: pKd

For orientation, consider the following solved cases.
1) O=C(O)CC/C=C(\c1ccc(-c2nc(C(=O)NCCCCC3CCCCC3)co2)cc1)c1cccnc1; 7.03
2) CC(C)(C)c1ccc(SCC(=O)NCC(=O)NCC2C3CCC(O3)C2C/C=C/CCCC(=O)O)cc1 (configuration not stated); 8.38
3) O=C(O)CCc1ccccc1CC1C2CCC(O2)C1c1nc(C(=O)NCCCCc2ccc(O)cc2)co1 (configuration not stated); 9.30
4) CC(C)(Cc1ccccc1CC1C2CCC(O2)C1c1nc(C(=O)NCCCCC2CCCCC2)co1)C(=O)O (configuration not stated); 7.44
5) O=C(O)CCc1ccccc1CC1C2CCC(O2)C1c1nc(C(=O)NCCCCN2CCCCC2)co1 (configuration not stated); 7.66

(P) O=C(O)COc1ccccc1CC1C2CCC(O2)C1c1nc(C(=O)NCCCCC2CCCCC2)co1 (configuration not stated)
(Q) O=C(O)CCc1ccccc1CC1OCOC1c1nc(C(=O)NCCc2ccc(Cl)cc2)co1 (racemic)
stdin: Just tell me: smaller pKd value, P or Q ? Mark your answer with the label of the selected entry.
stdout: Q
(Q: 7.51, P: 8.49)

----------
TARGET DESC: UniProt:P21731
Sequence (P21731 whole entry): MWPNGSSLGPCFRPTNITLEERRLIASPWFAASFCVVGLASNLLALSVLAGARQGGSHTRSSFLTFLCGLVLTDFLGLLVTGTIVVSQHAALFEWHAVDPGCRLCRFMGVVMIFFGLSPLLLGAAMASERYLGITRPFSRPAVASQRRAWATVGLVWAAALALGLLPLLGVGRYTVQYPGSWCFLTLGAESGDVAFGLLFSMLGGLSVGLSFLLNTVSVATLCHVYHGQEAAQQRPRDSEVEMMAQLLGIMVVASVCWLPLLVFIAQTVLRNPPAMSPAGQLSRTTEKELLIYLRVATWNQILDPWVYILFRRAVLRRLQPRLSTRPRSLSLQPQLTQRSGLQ
// cross-source set; read-out = Kd; system = UniProt:P21731
MEASUREMENT KIND: Kd (nM)

1) O=c1c(O)c(NCc2cccc(CCNS(=O)(=O)c3ccc(Cl)cc3)c2)c1=O; 359
2) O=C(O)CCc1ccccc1CC1C2CCC(O2)C1c1nc(C(=O)NCCCCC(=O)NC2CCCCC2)co1 (centres undefined); 22
3) O=C(O)Cc1cccc(CCC2C3CCC(O3)C2/C=N/NC(=O)Nc2ccccc2)c1 (centres undefined); 1070
4) O=C(O)Cc1ccccc1CC1C2CCC(O2)C1c1nc(C(=O)NCCCCC2CCCCC2)co1 (centres undefined); 19

(I) O=C(O)Cc1cccc(CCC2C3CCC(O3)C2c2nc(C(=O)NCCCCC3CCCCC3)co2)c1 (centres undefined)
(II) CSc1ccc(CCCCNC(=O)c2coc(C3C4CCC(O4)C3Cc3ccccc3CCC(=O)O)n2)cc1 (centres undefined)
(III) CCCCCC/C(S)=N/C/C(S)=N/CC1C2CC[C@@H](O2)C1C/C=C/CCCC(=O)O (some centres undefined)
(IV) CCCCCCCC(=O)NCC(=O)NCC1C2CCC(O2)C1C/C=C/CCCC(=O)O (single isomer, unassigned; (-))
stdin: Order the records so the highest Kd appears first and the lowest last. Answer by writing out the labels in the requested order.
stdout: IV, III, I, II

----------
// cross-source set; read-out = Kd; system = Thromboxane A2 receptor (Homo sapiens, UniProt P21731)
MEASUREMENT KIND: Kd (nM)

(P) O=C(O)CCc1ccccc1CC1CCC[C@H]1c1nc(C(=O)NCCCCC2CCCCC2)co1 (single isomer, unassigned; (-))
(Q) O=C(O)CCc1ccccc1CC1=C(c2nc(C(=O)NCCc3ccc(Cl)cc3)co2)CCCC1
stdin: Just tell me: smaller Kd value, P or Q ? Mark your answer with the label of the selected entry.
stdout: P

(I) CCCCCCCCC(=O)NCC(=O)NCC1C2CCC(O2)C1C/C=C/CCCC(=O)O (stereo not drawn)
(II) O=C(O)CCCC/C=C(\c1cccnc1)c1cccc(C2=N[C@@H](C(=O)NCCCCC3CCCCC3)CO2)c1
(III) O=C(O)CCc1ccccc1C[C@@H]1CCC[C@@H]1c1nc(C(=O)NCCCCC2CCCCC2)co1
(IV) O=C(O)CCc1ccccc1C[C@@H]1CCC[C@H]1c1nc(C(=O)NCc2ccc(Cl)cc2)co1
(V) O=C(O)CCc1ccccc1CC1C2CCC(O2)C1c1nc(C(=O)NCCCCC(F)(F)F)co1 (stereo not drawn)
stdin: Order the records so the highest Kd appears first and the lowest last. Answer by writing out the labels in the requested order.
stdout: II, III, I, V, IV

(P) O=C(O)CCc1ccccc1CC1C2CCC(O2)C1c1nc(C(=S)NCCCCC2CCCCC2)co1 (stereo not drawn)
(Q) O=C(O)c1cccc(CCC2C3CCC(O3)C2c2nc(C(=O)NCCCCC3CCCCC3)co2)c1 (stereo not drawn)
stdin: In the pair P and Q , the larger recorded Kd belongs to which? Mark your answer with the label of the selected entry.
stdout: Q

----------
TARGET DESC: Thromboxane A2 receptor (Homo sapiens, UniProt P21731)
Sequence (P21731 whole entry): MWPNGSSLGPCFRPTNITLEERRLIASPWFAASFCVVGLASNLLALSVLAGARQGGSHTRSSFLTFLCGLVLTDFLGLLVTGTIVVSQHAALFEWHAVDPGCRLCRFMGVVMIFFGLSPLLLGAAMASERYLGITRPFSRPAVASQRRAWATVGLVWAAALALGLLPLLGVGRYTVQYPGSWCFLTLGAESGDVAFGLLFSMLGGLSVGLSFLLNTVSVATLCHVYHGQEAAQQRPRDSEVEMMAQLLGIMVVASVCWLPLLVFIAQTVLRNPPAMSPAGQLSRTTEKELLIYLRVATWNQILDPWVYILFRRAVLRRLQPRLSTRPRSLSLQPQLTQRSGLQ
pKd: −log10 of the molar value.
// cross-source set; read-out = pKd; system = Thromboxane A2 receptor (Homo sapiens, UniProt P21731)
MEASUREMENT KIND: pKd

For orientation, consider the following solved cases.
1. CCCCCC/C(S)=N/CC(=O)NCC1C2CCC(O2)C1C/C=C/CCCC(=O)O (centres undefined); 7.91
2. O=C(NCCCCC1CCCCC1)c1coc(C2C3CCC(O3)C2Cc2ccccc2CCCO)n1 (centres undefined); 6.95
3. CCCCCNC(=O)[C@@H]1COC(c2ccc(/C(=C\CCCCC(=O)O)c3cccnc3)cc2)=N1; 6.61
4. CCCCCNC(=O)c1coc(-c2ccc(/C(=C\CCCCC(=O)O)c3cccnc3)cc2)n1; 6.82
5. O=C(O)CCc1ccccc1CC1C2CCC(O2)C1c1nc(C(=O)OCCCCC2CCCCC2)co1 (centres undefined); 9.00

(A) O=C(O)CCCC/C=C(/c1cccnc1)c1cccc(-c2nc(C(=O)NCCCCC3CCCCC3)co2)c1
(B) COc1ccc(CCCCNC(=O)c2coc(C3C4CCC(O4)C3Cc3ccccc3CCC(=O)O)n2)cc1 (centres undefined)
stdin: Just tell me: smaller pKd value, A or B ? Mark your answer with the label of the selected entry.
stdout: A

(1) O=C(O)CCCC/C=C(\c1cccnc1)c1cccc(-c2nc(C(=O)NCCCCC3CCCCC3)co2)c1
(2) C/C(Cc1ccccc1CCC(=O)O)=C(\C)c1nc(C(=O)NCCc2ccc(Cl)cc2)co1
stdin: In the pair 1 and 2 , the larger recorded pKd belongs to which? Mark your answer with the label of the selected entry.
stdout: 2
